The measured values listed here are drawn from a melting point compilation (Tetko et al.; mined from patent text by program, amines drawn as free bases though some values may be those of a salt).

Measure: melting point

Field: example entries. Status: answers known.
> print(dat)
                                   compound  reported.measurement
1  CC1(C(=O)Cc2ccc(Cl)cc2[N+](=O)[O-])CC=CS1 (stereo not drawn)         142 to 143 °C
2          COc1cccc(Cc2cc3ccc4ccccc4n3n2)c1           82 to 84 °C
3  CCCN(c1ncnc2c1ncn2C1OC(CO)C(O)C1O)n1cccc1 (stereo not drawn)         136 to 138 °C

Bench note: what melting point did `COc1ccc(-c2nc(C(=O)NCCc3ccccn3)sc2-c2ccc(OC)cc2)cc1` show?
130 to 132 °C

Same lookup for `Cc1c(-c2ccccc2)oc(=O)n1C1CCN(CCc2ccccc2)CC1` , please.
144 °C

Same lookup for CC(F)=C1CCC2C3CC=C4CC(O)CCC4(C)C3CCC12C (stereo not drawn) , please.
129 to 133 °C

Same lookup for `CC(=O)c1cccc(-c2ncc(OCCCN(C)C)cn2)c1` , please.
61 to 62 °C

Same lookup for `C=CCNC(=O)c1cnc2c(OC)cccc2c1Cl` , please.
114 to 116 °C

Same lookup for `COc1ccc(C(=O)O)cc1CCCN(C)C` , please.
135 to 138 °C

Same lookup for `CS(=O)(=O)c1nc2c(F)cccc2s1` , please.
160 °C

Same lookup for CNC(=O)N1CCc2[nH]cnc2C1C1CCCCC1 (stereo not drawn) , please.
250 °C

Same lookup for `CC(C)n1nc(-c2sc(NC(=O)CNCc3ccccc3)nc2-c2ccccc2)ccc1=O` , please.
144 to 145 °C

Same lookup for `O=C(NCC1CCN(CC2(C(=O)O)CCOCC2)CC1)N1C(=O)C2(CCCC2)c2ccccc21` , please.
146 °C

----------
Readings of melting point for the listed compounds

> print(dat)
                                   compound        measure  reported.measurement
1  CCOC(=O)C(C)Oc1ncn(-c2ccc(OC(F)(F)F)cc2)n1 (centres undefined)  melting point           52 to 53 °C
2  COc1cccc(Cn2nc(C(=O)O)c3c2-c2ccc(OCc4cncnc4)cc2CC3)c1  melting point         220 to 221 °C
3  Cc1oc2ccccc2c1C(=O)NCc1ccc2c(Br)c(O)ccc2c1  melting point         179 to 181 °C
4  COc1cccc(C2(CCC(=O)O)NC(=O)NC2=O)c1 (centres undefined)  melting point                138 °C
5    CCOc1ccc(-c2noc3c(Cl)c(OC)ccc23)c(F)c1  melting point         151 to 152 °C

Bench note: what melting point did `CC(=O)Oc1ccc(-c2cc(=O)c3cc(Br)cc([N+](=O)[O-])c3o2)cc1F` show?
236 to 238 °C

Same lookup for `CC(C)Oc1cccc(NC(=O)OCc2c(-c3ccccc3)c3cc(Cl)ccc3c(=O)n2C)c1` , please.
205 to 207 °C

Same lookup for `CC=CC(=O)Nc1n[nH]c2ccc(C(F)(F)F)cc12` , please.
242 °C

Same lookup for COC(=O)C(Sc1ccc(C)cc1)(C1=NCCCS1)[N+](=O)[O-] (centres undefined) , please.
85 to 89 °C

----------
Readings of melting point for the listed compounds

Field: example entries. Status: answers known.
> print(dat)
                                   compound  reported.measurement
1          Cc1cccc(Cl)c1OC1CN(C(=O)N(C)C)C1           46 to 47 °C
2  CC(C)c1nc(-c2ncn3c2CN(C(=O)N2CCCC2)c2c(F)cccc2-3)no1         169 to 170 °C
3  CNC(=O)CS(=O)(=O)Nc1c(F)cccc1Oc1nc(OC)cc(OC)n1         193 to 198 °C
4         O=c1[nH]c2sc3ccc(Br)cc3c2[nH]c1=O              > 320 °C
5  Cn1cc(CS(C)=O)c(=O)c2ccc(C(F)(F)F)cc21 (stereo unspecified)         208 to 210 °C

// next item, melting point requested
Bench note: what melting point did CC(C(=O)O)c1ccc2oc(Nc3ccc(Cl)cc3)nc2c1 (stereo unspecified) show?
206 to 208 °C

----------
Measure: melting point

> print(dat)
                                compound  reported.measurement
1  CC(=O)NNc1nc(-c2ccccc2)c2cc(Cl)ccc2n1                228 °C

Bench note: what melting point did CC(CO)Nc1c([N+](=O)[O-])cnc2ccccc12 (stereo not drawn) show?
207 to 211 °C

Same lookup for `Cc1nc2c(NC(=O)C(C)(C)C)c(C(=O)C=Cc3ccccc3)ccn2c1C` , please.
108 to 110 °C

----------
Readings of melting point for the listed compounds

> print(dat)
                                   compound        measure  reported.measurement
1  CC(C)C(=O)NC[C@@H]1CN2C(=O)C[C@H]2O1 (racemic)  melting point           76 to 77 °C
2  CC(=NOCCO)c1ccc(N(C)S(=O)(=O)c2ccccc2)cc1  melting point           76 to 77 °C
3  COc1cccc(CCNC(=O)c2ccc3c(c2)C=CC(C)(C)O3)c1  melting point         105 to 110 °C
4  CCOC(=O)C1=C(C)NN=C(CC)C1c1ccccc1C(F)(F)F (stereo not given)  melting point                124 °C
5        Cc1cc(O)ccc1N1CCc2c(C)nc3ccccc3c21  melting point         315 to 318 °C
6             NS(=O)(=O)c1ccccc1C=C1CCOC1=O  melting point         178 to 180 °C

Bench note: what melting point did `C=CCc1c(O)ccc2c1CCCC2=O` show?
145 to 148 °C

----------
Measure: melting point

Field: example entries. Status: answers known.
> print(dat)
                                   compound        measure  reported.measurement
1  O=[N+]([O-])c1ccc2c(c1)CCC(COC1CCCCO1)O2 (configuration not stated)  melting point               66.4 °C
2  CCP1(=O)c2ccccc2CN1c1ccccc1 (configuration not stated)  melting point         116 to 120 °C
3  CC(=O)Nc1c(C(=O)c2ccccc2)[nH]c2cc(C)ccc12  melting point         136 to 138 °C
4         COc1cccc2oc(-c3ccccc3Cl)cc(=O)c12  melting point         148 to 149 °C
5  CCNC(=O)Nc1nc2cc(-c3cccnc3)cc(C(=O)NC)n2n1  melting point              > 300 °C

Bench note: what melting point did `CNC(=O)[C@@H](NC(=O)[C@@H](CC(=O)OCc1ccccc1)n1ccc(-c2ccc(C#N)cc2)c1)C(C)(C)C` show?
102 to 104 °C

----------
Readings of melting point for the listed compounds

Field: example entries. Status: answers known.
> print(dat)
                                   compound  reported.measurement
1                        CN(C)C(C)(C)C(N)=O         109 to 111 °C
2  CCOC(=O)c1c(C)cc2nc(COC(N)=O)n(-c3ccccc3C(F)(F)F)c(=O)c2c1C         158 to 159 °C

// next item, melting point requested
Bench note: what melting point did O=C(CO)NC1CCC(CC2CCC(NC(=O)CO)CC2)CC1 (stereo not drawn) show?
149 to 151 °C

----------
Readings of melting point for the listed compounds

Field: example entries. Status: answers known.
> print(dat)
                                   compound  reported.measurement
1  O=C1CCC(N2Cc3c(OCc4ccc(CN5Cc6ccccc6C5)cc4)cccc3C2=O)C(=O)N1 (stereo not given)         153 to 155 °C
2  CCN(CC)CCC1(C(N)=O)Cc2ccccc2N(CC)c2ccccc21 (stereo not given)           95 to 97 °C
3   CS(=O)(=O)c1ccc(-c2nc(=O)c3ccccc3s2)cn1         205 to 207 °C

Bench note: what melting point did `CS(=O)(=O)c1ccc([C@@H](CC2CCCC2)C(=O)Nc2nc3ccccc3[nH]2)cc1` show?
230 to 232 °C

Same lookup for `CC(=Cc1ccc(-c2ccc(Cl)cc2)cc1)[N+](=O)[O-]` , please.
114 °C

Same lookup for `CCc1[nH]n(C2CCCC2)c2nc(Cc3ccc(C(F)(F)F)cc3)nc(=O)c1-2` , please.
212 to 213 °C

----------
Measure: melting point

Bench note: what melting point did `COc1ccc(-c2cnc3cc4cnn(Cc5ccccc5)c4cc3n2)cc1F` show?
149 to 155 °C

Same lookup for `Cc1ccc([C@H](CC(=O)O)NC(=O)Nc2c(O)ccn(Cc3ccccc3Cl)c2=O)cc1` , please.
113 to 115 °C

Same lookup for `Nc1c(Br)cc(F)cc1[N+](=O)[O-]` , please.
71.5 to 72.5 °C
